Reference source: patent US20240166635A1

# target_entity: CDK1/CyclinB (Homo sapiens (Human))
# Sequence (P06493 whole entry): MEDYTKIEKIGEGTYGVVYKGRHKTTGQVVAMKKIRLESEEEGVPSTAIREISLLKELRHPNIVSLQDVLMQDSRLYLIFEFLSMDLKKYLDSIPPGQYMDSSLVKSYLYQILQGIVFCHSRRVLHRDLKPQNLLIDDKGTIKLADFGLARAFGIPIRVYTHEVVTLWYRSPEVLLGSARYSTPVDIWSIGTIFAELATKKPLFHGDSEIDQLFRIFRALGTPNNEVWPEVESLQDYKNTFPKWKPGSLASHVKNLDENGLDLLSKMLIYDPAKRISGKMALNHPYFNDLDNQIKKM
# Sequence (P14635 whole entry partner): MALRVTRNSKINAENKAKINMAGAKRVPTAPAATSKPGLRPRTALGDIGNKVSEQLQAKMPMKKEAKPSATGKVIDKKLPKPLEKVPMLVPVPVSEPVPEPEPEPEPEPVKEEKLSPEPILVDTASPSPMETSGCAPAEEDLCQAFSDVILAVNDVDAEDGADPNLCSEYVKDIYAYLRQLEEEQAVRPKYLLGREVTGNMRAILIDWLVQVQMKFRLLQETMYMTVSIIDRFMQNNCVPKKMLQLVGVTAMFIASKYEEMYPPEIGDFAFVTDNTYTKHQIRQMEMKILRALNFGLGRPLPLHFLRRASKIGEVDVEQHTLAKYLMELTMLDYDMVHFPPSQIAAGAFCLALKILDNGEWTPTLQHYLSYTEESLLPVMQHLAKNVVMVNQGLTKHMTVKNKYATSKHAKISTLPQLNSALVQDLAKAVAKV
# protocol_description: CDK1/CyclinB kinase inhibitory activity (Caliper mobility shift)
# Format: biochemical
# setup_conditions: read-out: CDK1/Cyclin B1 IC50
pIC50: −log10 of the molar value.
Measured pIC50, listed per entry for reference.

Please review the entries below; each comes with its answer.
molecule	value_reported
CC1CCCC(O)C1Oc1nc(Nc2ccc(S(N)(=O)=O)cc2)ncc1C(F)(F)F (single isomer, unassigned) [Example 112a]	7.00 to 8.00
[2H]C([2H])([2H])NS(=O)(=O)c1ccc(Nc2ncc(C(F)(F)F)c(OC3CCOCCC3O)n2)cc1 (single isomer, unassigned) [Example 102d]	6.00 to 7.00

Okay, now this molecule:
[Q] Using known records, supply pIC50 for Cn1cc(S(=O)(=O)N2CCC(Nc3ncc(C#N)c(OCC4(C)CCC4)n3)CC2)cn1
[A] > 8.00

###

# target_entity: CDK1/CyclinB (Homo sapiens (Human))
# protocol_description: CDK1/CyclinB kinase inhibitory activity (Caliper mobility shift)
# setup_conditions: read-out: CDK1/Cyclin B1 IC50
experimental_readout: IC50

compound	target_entity	value_reported
N#Cc1cnc(Nc2ccc(S(N)(=O)=O)cc2)nc1OCC1(CO)CCCC1	CDK1/CyclinB (Homo sapiens (Human))	10 to 100 nM
C=Cc1cnc(Nc2ccc(S(N)(=O)=O)cc2)nc1OC1CCCC1O (single isomer, unassigned) [Example 155a]	CDK1/CyclinB (Homo sapiens (Human))	10 to 100 nM
CNS(=O)(=O)c1ccc(Nc2ncc(C#N)c(OC3CCCC3(C)O)n2)cc1 (single isomer, unassigned) [Example 34b]	CDK1/CyclinB (Homo sapiens (Human))	100 to 1000 nM

[Q] Fill in reported IC50 for this entry: N#Cc1cnc(Nc2ccc(S(N)(=O)=O)cc2)nc1OC1CCCC1O (single isomer, unassigned) [Example 20a]
[A] 100 to 1000 nM

###

# target_entity: CDK1/CyclinB (Homo sapiens (Human))
# protocol_description: CDK1/CyclinB kinase inhibitory activity (Caliper mobility shift)
# setup_conditions: read-out: CDK1/Cyclin B1 IC50
IC50: recorded values

# annotated cases, reported IC50 shown
compound	IC50
N#Cc1cnc(Nc2ccc(S(=O)(=O)NC3CC(F)C3)cc2)nc1OC1CCCCC1O (single isomer, unassigned) [Example 31b]	0.1 to 1 µM
C[C@]1(O)CC(F)(F)C[C@H]1Oc1nc(NC2CCN(S(C)(=O)=O)CC2)ncc1C#N (relative stereo) [Example 4b]	0.1 to 1 µM
CC1(O)CC(F)(F)CCC1Oc1nc(NC2CCN(S(C)(=O)=O)CC2)ncc1C#N (single isomer, unassigned) [Example 47b]	≥ 1 µM
CNS(=O)(=O)c1ccc(Nc2ncc(Cl)c(OC3CCCC3O)n2)cc1 (single isomer, unassigned) [Example 137b]	0.01 to 0.1 µM

[Q] Determine from records and report IC50 for CC(C)NS(=O)(=O)c1ccc(Nc2ncc(C#N)c(OC3CCCCC3O)n2)cc1 (single isomer, unassigned) [Example 30a]
[A] 0.01 to 0.1 µM

[Q] Tell us which IC50 value is on record for CC(C)NS(=O)(=O)c1ccc(Nc2ncc(Cl)c(OC3CCCC3O)n2)cc1 (single isomer, unassigned) [Example 138b]
[A] 0.01 to 0.1 µM

###

# target_entity: CDK9/CyclinT1 (Homo sapiens (Human), UniProt P50750)
# Sequence (P50750 whole entry): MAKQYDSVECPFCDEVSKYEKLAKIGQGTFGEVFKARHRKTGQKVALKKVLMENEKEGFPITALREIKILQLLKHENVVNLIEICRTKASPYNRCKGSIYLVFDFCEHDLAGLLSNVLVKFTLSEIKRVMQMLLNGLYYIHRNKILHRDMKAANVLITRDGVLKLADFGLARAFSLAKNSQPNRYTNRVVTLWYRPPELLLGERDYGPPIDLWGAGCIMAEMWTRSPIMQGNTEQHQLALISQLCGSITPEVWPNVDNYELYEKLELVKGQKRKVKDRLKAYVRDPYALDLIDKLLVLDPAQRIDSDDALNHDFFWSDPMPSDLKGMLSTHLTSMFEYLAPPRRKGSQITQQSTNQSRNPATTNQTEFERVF
# Sequence (O60563 whole entry partner): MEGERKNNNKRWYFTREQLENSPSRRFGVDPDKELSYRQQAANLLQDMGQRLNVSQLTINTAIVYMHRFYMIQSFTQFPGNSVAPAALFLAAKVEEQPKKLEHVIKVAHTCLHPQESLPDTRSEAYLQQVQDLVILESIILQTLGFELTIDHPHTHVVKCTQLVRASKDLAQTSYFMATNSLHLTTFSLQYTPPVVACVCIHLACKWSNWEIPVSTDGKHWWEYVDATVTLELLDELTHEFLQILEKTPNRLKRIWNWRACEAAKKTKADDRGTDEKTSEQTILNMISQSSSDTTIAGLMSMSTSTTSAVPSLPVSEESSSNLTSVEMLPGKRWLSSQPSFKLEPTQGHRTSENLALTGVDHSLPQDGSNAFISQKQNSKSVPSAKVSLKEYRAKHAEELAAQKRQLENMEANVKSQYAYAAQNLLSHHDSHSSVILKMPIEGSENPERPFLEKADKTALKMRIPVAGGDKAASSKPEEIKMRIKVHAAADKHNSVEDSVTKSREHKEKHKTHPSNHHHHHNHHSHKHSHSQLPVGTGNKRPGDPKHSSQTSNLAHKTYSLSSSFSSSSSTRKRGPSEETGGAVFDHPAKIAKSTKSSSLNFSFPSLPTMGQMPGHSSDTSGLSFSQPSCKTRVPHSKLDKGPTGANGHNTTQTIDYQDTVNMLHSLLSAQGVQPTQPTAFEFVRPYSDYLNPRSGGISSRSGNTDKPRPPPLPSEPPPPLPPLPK
# protocol_description: CDK9/CyclinT1 kinase inhibitory activity (Caliper mobility shift)
# setup_conditions: read-out: CDK9/Cyclin T1 IC50
pIC50: −log10 of the molar value.
The following molecules are shown together with reported pIC50 values.

Known results for molecules:
molecule	value_reported
C[C@]1(O)COC[C@H]1Oc1nc(NC2CCN(S(C)(=O)=O)CC2)ncc1C(F)(F)F (relative stereo) [Example 104b]	≤ 6.00
CC1(COc2nc(NC3CCN(S(N)(=O)=O)CC3)ncc2C#N)CCCC1	6.00 to 7.00

[Q] Report measured pIC50; entry is C[C@@H]1CC[C@H](O)CN1c1nc(Nc2ccc(S(N)(=O)=O)cc2)ncc1C#N
[A] 7.00 to 8.00

[Q] Tell me its pIC50 given Cn1cc(S(=O)(=O)N2CCC(Nc3ncc(C#N)c(OCC4(C)CCC4)n3)CC2)cn1 as the entry.
[A] 6.00 to 7.00
